Target desc: T1, DNA ligase IIIα (LIGIIIα) (UniProt P49916-3 1-922)
T1 sequence: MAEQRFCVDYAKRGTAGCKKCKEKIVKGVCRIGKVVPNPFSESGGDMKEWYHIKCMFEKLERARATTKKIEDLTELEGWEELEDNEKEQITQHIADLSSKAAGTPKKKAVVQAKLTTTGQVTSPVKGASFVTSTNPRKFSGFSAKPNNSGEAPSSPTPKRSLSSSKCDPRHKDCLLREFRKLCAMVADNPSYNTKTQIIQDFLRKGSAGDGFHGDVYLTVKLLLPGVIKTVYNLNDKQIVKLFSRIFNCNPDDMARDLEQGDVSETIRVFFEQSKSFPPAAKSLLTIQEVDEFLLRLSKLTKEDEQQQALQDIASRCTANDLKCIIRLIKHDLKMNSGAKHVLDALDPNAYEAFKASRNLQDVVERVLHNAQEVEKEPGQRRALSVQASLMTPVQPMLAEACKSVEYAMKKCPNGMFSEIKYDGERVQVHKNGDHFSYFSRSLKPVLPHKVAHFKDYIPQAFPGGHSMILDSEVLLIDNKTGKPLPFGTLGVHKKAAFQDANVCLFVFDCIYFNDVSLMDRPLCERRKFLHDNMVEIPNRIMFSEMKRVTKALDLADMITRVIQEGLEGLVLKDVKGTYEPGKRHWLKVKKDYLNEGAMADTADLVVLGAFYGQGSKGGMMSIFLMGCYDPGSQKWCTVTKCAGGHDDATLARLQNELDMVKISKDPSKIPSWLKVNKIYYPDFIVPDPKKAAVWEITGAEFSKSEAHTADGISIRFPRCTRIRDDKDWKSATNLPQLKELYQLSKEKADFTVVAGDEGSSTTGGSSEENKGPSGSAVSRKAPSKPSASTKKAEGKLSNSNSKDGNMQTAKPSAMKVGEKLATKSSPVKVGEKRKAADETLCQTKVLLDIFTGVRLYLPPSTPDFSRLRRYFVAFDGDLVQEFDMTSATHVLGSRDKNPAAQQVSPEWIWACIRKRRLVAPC
Measurement protocol: BLI; range given jointly for polβ, LIG1 and LIGIIIα; individual value only in figure; BLI (Octet QKe), 20 °C: polβ, APE1, LIGIIIα in 20 mM Hepes pH 7.4, 200 mM NaCl, 0.5% BSA, 0.05% Tween 20; LIG1 in 50 mM Tris-HCl pH 7.5, 100 mM KCl, 1 mM DTT; no Mg2+ listed
Condition set: protein: recombinant; tags: His; label: 3'-biotin on S2; 1-nt gap opposite template C; strands 1 and 2 pair with strand 3; blunt outer ends
pKd: −log10 of the molar value.
Measure name: pKd

Which pKd is reported for this binder? one-nucleotide gap DNA (template C) (dsDNA, 5'-phosphate on S2 at the gap; 3'-OH on S1) DNA 1: CATGGGCGGCATGAACC DNA 2: GAGGCCCATCCTCACC DNA 3: GGTGAGGATGGGCCTCCGGTTCATGCCGCCCATG
~8.31

The measurements presented in this section are drawn from paper PMC11176775.
